Target or system: Short transient receptor potential channel 6 (Mus musculus)
Assay protocol: TRPC6 blockade by TRPC4 inhibitor hits – cell-based, HEK293, membrane potential dye, duplicate, selectivity assay for TRPC4 inhibitor project, confirmation (AID 434948)
Cond: HEK293 TRPC6, membrane potential dye fluorescence, at 10 µM, stimulated with maximal-effect acetylcholine
The source made the active and inactive calls.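 Rule for the calls: active = active in primary screen and both duplicates, each dropping signal beyond three positive-control SD with fluorescence still positive; inactive = the rest.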
Outcomes: active, inactive

>>> print(df.to_string())
                                   molecule  classification
0         COCCn1c(SCc2ccccc2F)nc2ccccc2c1=O        inactive
1  CC(=O)NC(CC(=O)NCC(c1ccco1)N(C)C)c1ccccc1 (stereo unspecified)        inactive
2    O=S(=O)(c1ccccc1Cl)N1CCC(Cc2ccccc2)CC1        inactive
3      N/C(Cc1cccc2ccccc12)=N\OC(=O)c1cccs1        inactive
4             CCc1c(C(=O)N2CCCN(C)CC2)csc1C        inactive
5         N=c1c2c(n(Cc3ccccc3)c3c1CCC3)CCC2          active

----------
Test system: TRPC4 beta (transient receptor potential cation channel C4), mouse
Assay protocol: TRPC4 cation channel opening, retest – cell-based, Fluo4 calcium, HEK293 TRPC4beta/mu-opioid, duplicates, 10 µM, confirmation (AID 2426)
Cond: Fluo4 calcium fluorescence, at 10 µM; stronger effect = higher value
Active and inactive are the calls of the source.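 Rule for the calls: active = fluorescence ratio normalized to control raised more than 50% in primary screen plus both repeat runs; inactive = the rest.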
Experimental readout: activation

>>> df
                                   compound  measurement
0   Clc1cccc(C[n+]2cc(-c3ccccc3)n3c2CCC3)c1     inactive
1  CCCCN(C)CCNC(=O)C1CCCN(S(=O)(=O)c2cccc3nsnc23)C1 (stereo unspecified)     inactive
2  CN1/C(=C\C=[N+](C)c2ccccc2)C(C)(C)c2ccccc21     inactive
3   COc1ccc2c(c1)c1ncn(CCN3CCCC3)c(=O)c1n2C     inactive
4    CCOC(=O)c1cc(=O)n(Cc2ccccc2C)c2ccccc12     inactive
5  COc1ccc(C(=O)Nc2ccccc2N2CCN(C(=O)c3ccccc3)CC2)cc1Br     inactive

----------
Test system: transient receptor potential cation channel C4 beta (TRPC4), mouse
Assay protocol: TRPC4 cation channel opening, second retest – cell-based, second round, Fluo4, HEK293 TRPC4beta/mu-opioid, 1 µM, confirmation (AID 2461)
Cond: Fluo4 calcium fluorescence, at 1 µM
Activity calls are given as the source filed them.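 Rule for the calls: active = primary screen active and over 50% activation in each of two duplicate runs; inactive = the rest.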
Outcomes: active, inactive

>>> df
                                    molecule                          target_or_system  classification
 0  COc1cc(/C=C2\C(=O)ON=C2c2ccccc2)cc(Cl)c1O  transient receptor potential cation channel C4 beta (TRPC4), mouse        inactive
 1           CCN(CC)CCOCCOc1ccc(Cl)c2ccccc12  transient receptor potential cation channel C4 beta (TRPC4), mouse        inactive
 2          O=C(Cc1ccccc1)Nc1ccccc1Sc1ccccc1  transient receptor potential cation channel C4 beta (TRPC4), mouse        inactive
 3                Cc1cc(Br)cc(C)c1OCCCCN(C)C  transient receptor potential cation channel C4 beta (TRPC4), mouse        inactive
 4  CCn1nc(C)c(CN2CCCC(CO)(Cc3cccc(Cl)c3)C2)c1C (stereo not drawn)  transient receptor potential cation channel C4 beta (TRPC4), mouse        inactive
 5             CCCCNCc1cc(Cl)c(OCCC)c(OCC)c1  transient receptor potential cation channel C4 beta (TRPC4), mouse        inactive
 6         Cc1cccn2cc(-c3c[nH]c4ccccc34)nc12  transient receptor potential cation channel C4 beta (TRPC4), mouse        inactive
 7   c1ccc(Nc2nc(N3CCCCC3)nc(N3CCNCC3)n2)cc1  transient receptor potential cation channel C4 beta (TRPC4), mouse        inactive
 8  CN(C)C(CNC(=O)NC1CCCCC1)c1cccnc1 (stereo not drawn)  transient receptor potential cation channel C4 beta (TRPC4), mouse          active
 9               Cc1ccc(O)c(Sc2cc(C)ccc2O)c1  transient receptor potential cation channel C4 beta (TRPC4), mouse        inactive
10  CC(=O)Oc1ccc(NC(=O)CCC2CCCCC2)c(C(=O)O)c1  transient receptor potential cation channel C4 beta (TRPC4), mouse        inactive
11            CC(C)(C)c1cc2cccnc2n1Cc1ccccc1  transient receptor potential cation channel C4 beta (TRPC4), mouse        inactive
12  Cc1ccc(Cn2c(SCCN3CCCCC3)nc3c2c(=O)n(C)c(=O)n3C)cc1  transient receptor potential cation channel C4 beta (TRPC4), mouse        inactive
13  COCCNC(=O)/C(C#N)=C/c1cc(C(C)C)c(OC)cc1C  transient receptor potential cation channel C4 beta (TRPC4), mouse        inactive
14  CN(CCc1ccccn1)C(=O)CC1C(=O)NCCN1Cc1cccc(F)c1 (stereo not drawn)  transient receptor potential cation channel C4 beta (TRPC4), mouse        inactive
15  COc1cc(Cl)c(S(=O)(=O)N2CCN(Cc3ccc4c(c3)OCO4)CC2)cc1Cl  transient receptor potential cation channel C4 beta (TRPC4), mouse        inactive
16  CN(CC(=O)Nc1ccc(F)cc1)C(=O)COC(=O)C1CCN(c2ccc(C(F)(F)F)cn2)CC1  transient receptor potential cation channel C4 beta (TRPC4), mouse        inactive
17  CCn1c(N2CCN(C(=S)NCCc3ccccc3)CC2)nc2ccccc21  transient receptor potential cation channel C4 beta (TRPC4), mouse        inactive
18  Cc1ccc(-c2c(C(=O)N/N=C/c3ccc(OC(C)C)cc3)nnn2-c2nonc2N)cc1  transient receptor potential cation channel C4 beta (TRPC4), mouse        inactive
19  CC(C(=O)c1ccc(Br)cc1)[n+]1cccc(NC(=O)c2ccccc2)c1 (stereo not drawn)  transient receptor potential cation channel C4 beta (TRPC4), mouse        inactive
20  O=C(NN/C(=N/S(=O)(=O)c1ccc(Cl)cc1)c1ccccc1)c1cccc(Cl)c1  transient receptor potential cation channel C4 beta (TRPC4), mouse        inactive
21  CCOc1ccc(CN2CCCC(CNC(=O)c3ccc(F)cc3)C2)cc1CO (stereo not drawn)  transient receptor potential cation channel C4 beta (TRPC4), mouse        inactive
22  Cc1ccc(CN(C(=O)c2cc(=O)c3cc(Cl)c(C)cc3o2)C2CCS(=O)(=O)C2)cc1 (stereo not drawn)  transient receptor potential cation channel C4 beta (TRPC4), mouse        inactive

----------
Target or system: Potassium voltage-gated channel subfamily KQT member 1 (Homo sapiens)
Assay protocol: enhancement of KCNQ1 channel thallium flux – FluxOR thallium flux, CHO cells, duplicates, confirmation (AID 493007)
Cond: KCNQ1 cell line, FluxOR thallium flux fluorescence, at 10 µM, % of reference activator effect, buffer zero
The source made the active and inactive calls.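 The calls were made as follows: active = potentiation averaged over duplicate wells exceeding buffer-only control mean by more than 3 SD; inactive = the rest.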
Outcomes: active, inactive

                                    compound  classification
 0  CN(CCCNC(=O)CCCOc1cc(=O)n(C)c2ccccc12)Cc1ccccc1        inactive
 1  COc1cc(C2(c3ccc(O)c(OC)c3)C(=O)Nc3c(C)cc(Br)cc32)ccc1O          active
 2  Oc1c(Cl)cc(Cl)c(Cl)c1Cc1c(O)c(Cl)cc(Cl)c1Cl          active
 3  CC(=O)C1=C(S(=O)(=O)c2ccc(C)cc2)CS(=O)(=O)C1        inactive
 4    CCn1c(O)c(N=NC2=NC(=O)CS2)c2cc(C)ccc21          active
 5      c1ccc(-c2nc(NCc3ccco3)c3ccccc3n2)cc1        inactive
 6  Cc1nn(-c2cc(C(F)(F)F)ccc2Cl)c2nc(C(Cl)(Cl)Cl)[nH]c(=O)c12          active
 7  CCn1cc(CN2CCC(C(=O)Nc3cccc(-c4cccc(Cl)c4)c3)CC2)cn1        inactive
 8  COc1cc(NC(=O)CSc2ncnc3sc4c(c23)CCC(C)C4)c(C(=O)O)cc1OC (stereo not drawn)          active
 9         CCn1c(=S)[nH]c2sc3c(c2c1=O)CCCCC3          active
10  O=C(Nc1ccnn1C1CCN(Cc2cc3ccccc3[nH]2)CC1)C1CCOC1 (stereo not drawn)          active
11  CCOC(=O)c1sc(=S)n2c1[nH]c(=O)c1ccc(C(=O)OC)cc12          active
12  COc1cc(NS(=O)(=O)c2ccc3ccccc3c2)c2ncccc2c1          active
13  CN(C)CCCN(C(=O)CCc1ccccc1)c1nc2ccc(F)cc2s1        inactive
14     CC1=C/C(=N\OS(=O)(=O)c2ccccc2)C=CC1=O        inactive
15          Oc1c(Cl)cc(Cl)cc1/C=N/c1ncn[nH]1          active
16    Brc1ccccc1CN1CCN(Cc2c[nH]c3ccccc23)CC1        inactive
17     O=C1C=CC(=O)N1CCNc1ncc(C(F)(F)F)cc1Cl          active
18  CCC1(C)Cc2c(sc3[nH]c(=S)n(Cc4ccccc4)c(=O)c23)CO1 (stereo not drawn)          active
19   CCCc1nc2oc3c(NCCCN(C)C)ncnc3c2c2c1CCCC2        inactive
20     Cc1ccc(C(=O)O)cc1N=Cc1cc(Br)cc(Br)c1O          active
21  C=CCSc1nc2c(c(=O)[nH]c(=O)n2C)n1C/C=C(/C)Cl        inactive
22        Cc1cccc(NC(=S)NC(=O)c2ccc(Br)o2)c1          active
